target: T1, human LILRB4 (human, UniProt Q8NHJ6 22-448); experiment: FACS, 293F-hLILRB4 cells
T1 construct: whole, on cells; also called hLILRB4
With a cut-off of 2 nM, any EC50 strictly below it is called T; any EC50 meeting it or above is called F.

{"binder": "ch42-C8-A12-F3-D11 (antibody, V domains shown) VH: EVHLVESGGDLVKPGGSLKLSCAASGFTFSSHGMSWVRQTPDKRLEWVATISSGGIYTYHPDSVKGRFSISRDNAKKTLYLQMSSLKSEDTGIYYCTRGQVGNWYFDVWGAGTTVTVSS VL: DIVITQSPAIMSASPGEKVTINCSASSSVSYMHWFQQTPGTSPKLWIYSTSNLASGVPARFSGSGSGTFYSLTISRMEAEDAATYYCQQRSSYPLTFGAGTKLELK", "class": "T"}
{"binder": "ch27-F11-E10-G10 (antibody, V domains shown) VH: EVQLVESGGGLVQPGGSRKLSCAASGFTFSSFGMHWVRQAPEKGLEWVAYISSGSSTIYYADTVKGRFSISRDNPKNTLFLQMTSLRSEDTAMFYCARSTGTGAMDYWGQGTSVTVSS VL: DIQMTQTTSSLSASLGDRVTISCRASQDISNYLNWYQQKPDGTVKLLIYYTSRLHSGVPSRFSGSGSGTDYSLTISNLEQEDIATYFCQQGNTLPWTFGGGTKLELK", "class": "T"}
{"binder": "ch48-E11-H7-B5 (antibody, V domains shown) VH: EVQLVESGGGLVKPGGSLKLSCAASGFTFSSYAMSWVRQTPEKRLEWVASITIGDDTYYPDSVKGRFTISRDHAKNILYLQVSSLRSEDTAMYSCARGVNSYGSSYRYFDVWGAGTTVTVSS VL: DIVMTQSHKFMSTSVGDRVSITCKASQDVSTAVAWYQQKPGQSPKLLIYWASTRHTGVPDRFTGSGSGTDYTLTISSVQAEDLALYYCQQHYSIPFTFGAGTKLEK", "class": "F"}
{"binder": "ch26-H9-B9-B7 (antibody, V domains shown) VH: EVQRVESGGGLVQPGGSRKLSCAASGFTFSSFGMHWVRQAPEKGLEWVAYISSGSSTIYYADTVKGRFTISRDNPKNTLFLQMTSLRSEDTAMYYCARSDGKGAMDYWGQGTSVTVSS VL: DIVMTQSTSSLSASLGDRVTISCRASQDISNYLNWYQQKPDGTVKLLIYYTSRLHSGVPSRFSGSGSGTDYSLTISNLEQEDIATYFCQQGNTLPWTFGGGTKLEIK", "class": "T"}
{"binder": "ch43-D12-F3-G11 (antibody, V domains shown) VH: EVQVVESGPGLVAPSQSLSITCTVSGFSLTSYGVSWVRQPPGKGLEWLGVIWADGSTNYHSALLSRLSISKDNSKSQVFLKLNSLQTDDTATYYCAKGHWDGFAYWGQGTLVAVSA VL: DIVLTQSPAIMSTSPGEKVTLTCSASSSITSSYLYWYQQKPGSSPKLWIYSTSNLASGVPARFSGSGSGTSYYLTISSMEAEDAASYFCHQWSSYPPTFGGGTKLELK", "class": "F"}
{"binder": "ch2-H8-C9-F7-E2 (antibody, V domains shown) VH: EVQLQQSGAELVKPGASVKLSCKASGYTFTNYWMHWVKQRPGQGLEWIGEINPSNGRTNYNEKFKSKATLTVDKSSSTAYMQLSSLTSEDSAVYYCARGSLTTVVPFDYWGQGTTLTVSS VL: DIQMTQTPSSLSASLGGKVTITCKASQDINNYIAWYQHKPGKGPRLLIHYTSTLQPGIPSRFSGSGSGRDYSFSISNLEPEDIATYFCLQYDILLTFGGGTKLEK", "class": "T"}
{"binder": "ch27-D11-C2-A10 (antibody, V domains shown) VH: EVQLVESGGGLVQPGGSRKLSCAASGFTFSVFGVHWVRQAPEKGLEWVAYISSGSNTIHYADTVKGRFTISRDIPKNTLFLQMTSLRSEDTAMYYCARSSGTGAMDYWGQGTSVTVSS VL: DIQMTQSTSSLSASLGDRVSISCRASQDISNYLNWYQQKPDGAVKLLIYYTSRLHSGVPSRFSGSGSGTDYSLTISNLDQEDIATYFCQQGNTLPWTFGGGTKLELK", "class": "T"}
{"binder": "ch25-G9-G4-C12 (antibody, V domains shown) VH: EVQLVESGGDLVKPGGSLKLSCAASGFTFSSHGMSWVRQTPDKRLEWVATINSGGYYTYYPDSVKGRFTISRDNAKNTLYLQMSSLKSEDTAMYYCARGQLGNWYFDVWGAGTTVTVSS VL: DIVMTQSPAIMSASPGEKVTITCSASSSVSYMHWFQQKPGTSPKLWIYSTSNLASGVPARFSGSGSGTSYSLTISRMEAEDAATYYCQQRSSYPLTFGAGTKLELK", "class": "T"}
{"binder": "ch27-G5-E9-B8 (antibody, V domains shown) VH: EVQLVESGGGLVQPGGSRKLSCAASGFTFSSFGMHWVRQAPEKGLEWVAYISSGSSTIYYADTVKGRFTISRDNPKNTLFLQMTSLRSEDTAMYYCARSTGTGAMDYWGQGTSVTVSS VL: DIQMTQTTSSLSASLGDSVTFSCRASQDISNYLNWYQQKPDGTVKLLISYTSRLHSGVPSRFSGSGSGTDYSLTISNLEQEDIATYFCQQGNALPWTFGGGTKLEIK", "class": "T"}

Reference for the values: patent US20250361295A1
